Recorded rA1/hA2B by entry
Target: human A2B receptors (Homo sapiens, UniProt P29275)
Construct: expressed in transfected cells; host or cells: HEK-293
Sequence (P29275 1-332): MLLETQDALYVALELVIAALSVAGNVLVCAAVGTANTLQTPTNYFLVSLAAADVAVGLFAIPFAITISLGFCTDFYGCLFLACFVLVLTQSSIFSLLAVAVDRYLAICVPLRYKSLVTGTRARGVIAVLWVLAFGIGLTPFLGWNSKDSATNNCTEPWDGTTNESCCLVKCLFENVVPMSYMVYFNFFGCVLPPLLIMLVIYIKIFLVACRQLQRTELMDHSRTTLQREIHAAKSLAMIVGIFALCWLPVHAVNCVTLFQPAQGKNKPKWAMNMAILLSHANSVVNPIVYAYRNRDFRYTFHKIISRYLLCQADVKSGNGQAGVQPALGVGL
Assay: Binding at human A2B receptors expressed in HEK-293 cells vs [3H]ZM241385
Details: ratio of Ki rat A1 to Ki human A2B
Measurement Type: rA1/hA2B

>>> print(df.to_string())
                                   compound  result
0  CCCn1c(=O)c2[nH]c(-c3ccc(OCC(=O)NNC(=O)[C@H](CC(C)C)NC(=O)OC(C)(C)C)cc3)nc2n(CCC)c1=O     4.1
1  CCCn1c(=O)c2[nH]c(-c3ccc(OCC(=O)NNC(C)=O)cc3)nc2n(CCC)c1=O    0.10
2  CCCn1c(=O)c2[nH]c(-c3ccc(OCC(=O)NN4C(=O)C(C)=C(C)C4=O)cc3)nc2n(CCC)c1=O    0.57
3  CCCn1c(=O)c2[nH]c(-c3ccc(OCC(=O)NN4C(=O)C=C(C)C4=O)cc3)nc2n(CCC)c1=O     1.4
4  CCCn1c(=O)c2[nH]c(-c3ccc(OCC(=O)NNC(=O)C4CC=CCC4C(=O)O)cc3)nc2n(CCC)c1=O (centres unmarked) [Compound 18a]     2.6
5  CCCn1c(=O)c2[nH]c(-c3ccc(OCC(=O)NN4C(=O)C[C@H](NC(=O)C(F)(F)F)C4=O)cc3)nc2n(CCC)c1=O     2.5
6  CCCn1c(=O)c2[nH]c(-c3ccc(OCC(=O)NN4C(=O)c5ccccc5C4=O)cc3)nc2n(CCC)c1=O    0.41
7  CCCn1c(=O)c2[nH]c(-c3ccc(OCC(=O)NN4C(=O)C(c5ccccc5)=C(c5ccccc5)C4=O)cc3)nc2n(CCC)c1=O     3.4
